molecular target: US Standard Human Thrombin (Homo sapiens); construct: US Standard Human Thrombin; purchased NIH, Bethesda, Md., USA; assay: Change in the antithrombin activity of aqueous solutions of tripeptide-aldehyde sulfates on storage; type: physicochemical; conditions: percentage of initial activity; aqueous solution 10 mg/ml, pH = 6.0, stored at 40° C.; Day 2
measured-property: Activity (%) Day 2

INSERT INTO results (compound, measured_property, endpoint_value) VALUES
  ('CN[C@H](Cc1ccccc1)C(=O)N1CCC[C@H]1C(=O)N[C@@H](C=O)CCCNC(=N)N.O=S(=O)(O)O', 'Activity (%) Day 2', 100),
  ('CCN[C@H](Cc1ccccc1)C(=O)N1CCC[C@H]1C(=O)N[C@H](C=O)CCCNC(=N)N.O=S(=O)(O)O', 'Activity (%) Day 2', 100),
  ('CC(C)CN[C@H](Cc1ccccc1)C(=O)N1CCC[C@H]1C(=O)N[C@H](C=O)CCCNC(=N)N.O=S(=O)(O)O', 'Activity (%) Day 2', 85),
  ('N=C(N)NCCC[C@@H](C=O)NC(=O)[C@@H]1CCCN1C(=O)[C@H](N)Cc1ccccc1.O=S(=O)(O)O [reference compound]', 'Activity (%) Day 2', 50);

---

molecular target: US Standard Human Thrombin (Homo sapiens, UniProt P00734); construct: US Standard Human Thrombin; purchased NIH, Bethesda, Md., USA; assay: Antithrombin activity: clotting time in the thrombin-fibrinogen system; type: biochemical; conditions: peptide concentration in the reaction mixture inducing a fivefold prolongation of clotting time compared to the control (15 s)
measured-property: Initial activity I80 (zero day) (µM)

INSERT INTO measurements (molecule, tested_on, endpoint_value) VALUES
  ('CC(C)CN[C@H](Cc1ccccc1)C(=O)N1CCC[C@H]1C(=O)N[C@H](C=O)CCCNC(=N)N.O=S(=O)(O)O', 'US Standard Human Thrombin (Homo sapiens, UniProt P00734)', 0.31),
  ('N=C(N)NCCC[C@@H](C=O)NC(=O)[C@@H]1CCCN1C(=O)[C@H](N)Cc1ccccc1.O=S(=O)(O)O [reference compound]', 'US Standard Human Thrombin (Homo sapiens, UniProt P00734)', 0.25),
  ('CCN[C@H](Cc1ccccc1)C(=O)N1CCC[C@H]1C(=O)N[C@H](C=O)CCCNC(=N)N.O=S(=O)(O)O', 'US Standard Human Thrombin (Homo sapiens, UniProt P00734)', 0.21),
  ('CN[C@H](Cc1ccccc1)C(=O)N1CCC[C@H]1C(=O)N[C@@H](C=O)CCCNC(=N)N.O=S(=O)(O)O', 'US Standard Human Thrombin (Homo sapiens, UniProt P00734)', 0.25);

---

target: US Standard Human Thrombin (Homo sapiens); construct: US Standard Human Thrombin; purchased NIH, Bethesda, Md., USA; test: Change in the antithrombin activity of aqueous solutions of tripeptide-aldehyde sulfates on storage; format: physicochemical; settings: aqueous solution 10 mg/ml, pH 6.0, 40° C., 5 days
Property: loss of initial antithrombin activity during the observation period; scope: individual compounds
measured-property: loss of initial antithrombin activity during the observation period

INSERT INTO measurements (molecule_smiles, endpoint_value) VALUES
  ('CCN[C@H](Cc1ccccc1)C(=O)N1CCC[C@H]1C(=O)N[C@H](C=O)CCCNC(=N)N.O=S(=O)(O)O', '15 to 20%'),
  ('CC(C)CN[C@H](Cc1ccccc1)C(=O)N1CCC[C@H]1C(=O)N[C@H](C=O)CCCNC(=N)N.O=S(=O)(O)O', '15 to 20%');
